Tested on: HBV replication (HBV plus-polarity DNA strand)
Test: HBV replication inhibition, strand preferential qPCR in hepDES19 cells
Assay type: cell-based, hepatitis B virus
PROPERTY_LABEL: HepDES19 SI (CC50/EC50)
// no unit, no text: just the number

Recorded results for 3 compounds are shown here.
STRUCTURE_AS_SMILES: CC(=NOCc1ccc(OCc2ccc3ccccc3c2)cc1)c1c(C)cc(=O)n(O)c1O
MEASURED_NUMBER: 40.7
//
STRUCTURE_AS_SMILES: CC(=NOCc1cccc(C)c1)c1c(C)cc(=O)n(O)c1O
MEASURED_NUMBER: 526
//
STRUCTURE_AS_SMILES: CC(=NOCc1ccc2ccccc2c1)c1c(C)cc(=O)n(O)c1O
MEASURED_NUMBER: 71.3

*Q* Requested field: HepDES19 SI (CC50/EC50). Item: CC(=NOCc1ccc(OCc2ccccc2)cc1)c1c(C)cc(=O)n(O)c1O
*A* 6.53

Data origin: paper PMC11784145
